- Study System: HPK1 (Homo sapiens)
- Construct: A HiBiT tag was introduced by CRISPR on the N terminus of HPK1 in Jurkat cells; host or cells: Jurkat cells (ATCC TIB-152), monoclonal line with CRISPR knock-in of HiBiT at the endogenous HPK1 locus
- Assay Summary: HPK1 Cellular HiBit Degradation Assay
- Format: cell-based
- Measurement Context: HiBiT HPK1 Jurkat cells, 24 hrs; concentration at which 50% of HPK1 was remaining; read-out: DC50 Category
Reported Metric: DC50

Please review the following examples before continuing.
CC(C)n1cnc2cc(-c3ccc4c(c3)N([C@H]3C[C@@H](N5CCCCC5)C3)C(=O)C43CCN(C(=O)c4ccc(C(=O)N5CCC(N(C)c6ccc(C7CCC(=O)NC7=O)cn6)CC5)cc4)CC3)nc(Nc3ccccc3F)c21 (mixture of isomers): 500 to 1000 nM
CC(C)n1cnc2cc(-c3ccc4c(c3)N([C@H]3C[C@@H](N5CCCCC5)C3)C(=O)C43CCN(C(=O)C4CCN(C(=O)[C@H]5CC[C@H](Cn6cc7cc(C8CCC(=O)NC8=O)ccc7n6)CC5)CC4)CC3)nc(Nc3ccccc3F)c21 (mixture of isomers): < 100 nM

Ask | Using known records, supply DC50 for CC(C)n1cnc2cc(-c3ccc4c(c3)N([C@H]3C[C@@H](N5CCCCC5)C3)C(=O)C43CCN(C(=O)C4CCN(C[C@H]5CC[C@H](C(=O)N6CCc7cc(C8CCC(=O)NC8=O)ccc7C6)CC5)CC4)CC3)nc(Nc3ccccc3F)c21 (mixture of isomers)
Reply | 100 to 500 nM

Ask | Using known records, supply DC50 for CC(C)n1cnc2cc(-c3ccc4c(c3)N([C@H]3C[C@@H](N5CCCCC5)C3)C(=O)C43CCN(C(=O)[C@@H]4CCN(C(=O)[C@H]5CC[C@H](Nc6cccc7c6C(=O)N(C6CCC(=O)NC6=O)C7=O)CC5)C4)CC3)nc(Nc3ccncc3F)c21 (mixture of isomers)
Reply | 100 to 500 nM

----------
- Study System: HPK1 (Homo sapiens, UniProt Q92918)
- Construct: A HiBiT tag was introduced by CRISPR on the N terminus of HPK1 in Jurkat cells; host or cells: Jurkat cells (ATCC TIB-152), monoclonal line with CRISPR knock-in of HiBiT at the endogenous HPK1 locus
- Sequence (Q92918 whole entry): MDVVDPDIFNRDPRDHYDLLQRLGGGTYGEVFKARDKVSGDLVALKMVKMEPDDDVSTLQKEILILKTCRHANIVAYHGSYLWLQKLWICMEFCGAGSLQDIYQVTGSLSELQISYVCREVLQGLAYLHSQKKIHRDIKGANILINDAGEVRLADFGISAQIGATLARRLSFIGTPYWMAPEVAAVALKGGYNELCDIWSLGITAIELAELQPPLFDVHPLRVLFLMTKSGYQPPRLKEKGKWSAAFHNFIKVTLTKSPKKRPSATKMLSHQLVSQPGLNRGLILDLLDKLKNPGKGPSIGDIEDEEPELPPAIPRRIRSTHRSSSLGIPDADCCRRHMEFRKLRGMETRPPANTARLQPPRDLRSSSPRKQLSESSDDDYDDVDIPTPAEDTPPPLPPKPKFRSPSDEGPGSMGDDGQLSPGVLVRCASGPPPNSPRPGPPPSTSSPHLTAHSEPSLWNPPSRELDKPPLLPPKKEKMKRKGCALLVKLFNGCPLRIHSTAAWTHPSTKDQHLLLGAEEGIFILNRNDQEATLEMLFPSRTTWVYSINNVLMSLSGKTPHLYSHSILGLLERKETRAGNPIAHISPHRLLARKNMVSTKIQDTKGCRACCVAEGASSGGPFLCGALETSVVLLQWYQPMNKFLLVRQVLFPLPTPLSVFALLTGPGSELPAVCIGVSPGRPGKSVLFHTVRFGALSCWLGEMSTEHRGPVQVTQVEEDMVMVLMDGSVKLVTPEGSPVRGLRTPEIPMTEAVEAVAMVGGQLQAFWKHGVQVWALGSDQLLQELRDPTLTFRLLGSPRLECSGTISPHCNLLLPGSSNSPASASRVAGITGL
- Assay Summary: HPK1 Cellular HiBit Degradation Assay
- Type: cell-based
- Measurement Context: Jurkat, HiBiT HPK1 Jurkat cells, 24 hrs; maximum degradation vs DMSO vehicle control; read-out: Dmax Category
Reported Metric: Dmax

CC(C)n1cnc2cc(-c3ccc4c(c3)N([C@H]3C[C@@H](N5CCCCC5)C3)C(=O)C43CCN(C(=O)C4(O)CCN(C(=O)C5CCN(c6ccc(C7CCC(=O)NC7=O)cc6)CC5)CC4)CC3)nc(NC3CC3)c21 (mixture of isomers): 70 to 85%
CC(C)n1cnc2cc(-c3ccc4c(c3)N([C@H]3C[C@@H](N5CCC[C@H](F)C5)C3)C(=O)C43CCN(C(=O)C4(C)CCN(C(=O)CC5CCN(c6ccc(C7CCC(=O)NC7=O)cn6)CC5)CC4)CC3)nc(NC3CC3)c21 (mixture of isomers): 50 to 70%
CC(C)n1cnc2cc(-c3ccc4c(c3)N([C@H]3C[C@@H](N5CCCCC5)C3)C(=O)C43CCN(C(=O)C4CCN(C(=O)[C@H]5CC[C@H](Nc6ccc(C7CCC(=O)NC7=O)cc6)CC5)CC4)CC3)nc(Nc3ccccc3F)c21 (mixture of isomers): 70 to 85%

Ask | Using known records, supply Dmax for CC(C)n1cnc2cc(-c3ccc4c(c3)N([C@H]3C[C@@H](N5CCCCC5)C3)C(=O)C43CCN(C(=O)c4ccc(CN5CCN(C(=O)C6CCN(c7ccc(C8CCC(=O)NC8=O)cn7)CC6)CC5)cc4)CC3)nc(NC3CC3)c21 (mixture of isomers)
Reply | 70 to 85%

Ask | Using known records, supply Dmax for CC(C)n1cnc2cc(-c3ccc4c(c3)N([C@H]3C[C@@H](N5CCCCC5)C3)C(=O)C43CCN(C(=O)C4CCN(C(=O)[C@H]5CC[C@H](Cn6cc7cc(C8CCC(=O)NC8=O)ccc7n6)CC5)CC4)CC3)nc(Nc3ccccc3F)c21 (mixture of isomers)
Reply | 50 to 70%

Ask | Using known records, supply Dmax for CC(C)n1cnc2cc(-c3ccc4c(c3)N([C@H]3C[C@@H](N5CCCCC5)C3)C(=O)C43CCN(C(=O)[C@@H]4C[C@H]5CC[C@@H](C4)N5C(=O)C4CCN(c5ccc(C6CCC(=O)NC6=O)cn5)CC4)CC3)nc(NC3CC3)c21 (mixture of isomers)
Reply | 70 to 85%

Ask | Using known records, supply Dmax for CC(C)n1cnc2cc(-c3ccc4c(c3)N([C@H]3C[C@@H](N5CCCCC5)C3)C(=O)C43CCN(C(=O)C4CCN(C(=O)C5CCN(c6ccc(N7CCC(=O)NC7=O)cc6)CC5)CC4)CC3)nc(NC3CC3)c21
Reply | 70 to 85%

Ask | Using known records, supply Dmax for CC(C)n1cnc2cc(-c3ccc4c(c3)N([C@H]3C[C@@H](N5CCCCC5)C3)C(=O)C43CCN(C(=O)C4CCN(C(=O)[C@H]5CC[C@H](Cn6ncc7cc(C8CCC(=O)NC8=O)ccc76)CC5)CC4)CC3)nc(Nc3ccccc3F)c21 (mixture of isomers)
Reply | 70 to 85%
